Each record here notes measured IC50.
- Experimental target: CNDP2 (Homo sapiens (Human), UniProt Q96KP4)
- Sequence (Q96KP4 whole entry): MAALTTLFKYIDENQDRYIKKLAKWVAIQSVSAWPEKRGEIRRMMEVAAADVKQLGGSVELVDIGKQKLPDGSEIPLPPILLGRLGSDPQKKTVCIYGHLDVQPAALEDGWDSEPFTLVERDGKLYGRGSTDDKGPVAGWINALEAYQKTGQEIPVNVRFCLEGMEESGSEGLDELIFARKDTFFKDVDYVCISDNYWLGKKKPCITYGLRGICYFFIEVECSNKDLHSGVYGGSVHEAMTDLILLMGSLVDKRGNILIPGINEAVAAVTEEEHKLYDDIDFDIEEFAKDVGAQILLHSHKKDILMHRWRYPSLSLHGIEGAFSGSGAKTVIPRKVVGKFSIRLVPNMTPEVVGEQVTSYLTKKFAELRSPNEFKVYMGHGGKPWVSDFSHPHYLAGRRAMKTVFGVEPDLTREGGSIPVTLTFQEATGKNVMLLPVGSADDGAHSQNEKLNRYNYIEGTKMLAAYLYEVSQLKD
- Procedure details: CNDP2 enzyme inhibition assay (Met-His hydrolysis, free histidine by o-phthaldialdehyde fluorescence), dose-response
- Format: biochemical
- Test settings: 50 nM purified CNDP2 (Sino Biological), 1 mM Met-His substrate, 30 minutes at 37° C.; TABLE 2
Where a name gives a salt, the structure may show the parent alone.

- Molecule: "N[C@H](Cc1ccccc1)[C@H](O)C(=O)NC(C(=O)O)c1cc(C(F)(F)F)ccc1F (stereo partly shown)"
  Experimental target: "CNDP2 (Homo sapiens (Human), UniProt Q96KP4)"
  IC50: "≥ 1 µM"
- Molecule: "N[C@H](Cc1ccccc1)[C@H](O)C(=O)NC(C(=O)O)c1ccc(F)c(C(F)(F)F)c1 (stereo partly shown)"
  Experimental target: "CNDP2 (Homo sapiens (Human), UniProt Q96KP4)"
  IC50: "< 0.1 µM"
- Molecule: "N[C@H](Cc1ccccc1)[C@H](O)C(=O)N[C@@H](C(=O)O)c1cc(F)cc(OC(F)(F)F)c1"
  Experimental target: "CNDP2 (Homo sapiens (Human), UniProt Q96KP4)"
  IC50: "≥ 1 µM"
- Molecule: "N[C@H](Cc1ccccc1)[C@H](O)C(=O)NC(c1cccc(C(F)(F)F)c1)c1noc(=O)[nH]1 (stereo partly shown)"
  Experimental target: "CNDP2 (Homo sapiens (Human), UniProt Q96KP4)"
  IC50: "0.1 to 1 µM"
- Molecule: "N[C@H](Cc1ccccc1)[C@H](O)C(=O)N[C@H](C(=O)O)c1cccc(C(F)(F)F)c1F"
  Experimental target: "CNDP2 (Homo sapiens (Human), UniProt Q96KP4)"
  IC50: "0.1 to 1 µM"
- Molecule: "N[C@H](Cc1ccccc1)[C@H](O)C(=O)N[C@@H](C(=O)O)c1cc(Cl)cc(OC(F)(F)F)c1 [Compound 108, hydrochloride]"
  Experimental target: "CNDP2 (Homo sapiens (Human), UniProt Q96KP4)"
  IC50: "≥ 1 µM"
- Molecule: "N[C@H](Cc1ccccc1)[C@H](O)C(=O)N[C@@H](CC1CCC(F)(F)CC1)c1n[nH]c(=O)o1"
  Experimental target: "CNDP2 (Homo sapiens (Human), UniProt Q96KP4)"
  IC50: "≥ 1 µM"
- Molecule: "N[C@H](Cc1ccccc1)[C@H](O)C(=O)N[C@@H](C(=O)O)c1ccc(Cl)c(OC(F)(F)F)c1 [Compound 106, hydrochloride]"
  Experimental target: "CNDP2 (Homo sapiens (Human), UniProt Q96KP4)"
  IC50: "≥ 1 µM"
- Molecule: "N[C@H](Cc1ccccc1)[C@H](O)C(=O)N[C@@H](CN1CCCC(F)(F)C1)C(=O)O"
  Experimental target: "CNDP2 (Homo sapiens (Human), UniProt Q96KP4)"
  IC50: "≥ 1 µM"
- Molecule: "N[C@H](Cc1ccccc1)[C@H](O)C(=O)N[C@@H](Cc1cc(F)c(OC(F)(F)F)c(F)c1)C(=O)O"
  Experimental target: "CNDP2 (Homo sapiens (Human), UniProt Q96KP4)"
  IC50: "0.1 to 1 µM"
